These compounds were tested on Methionine aminopeptidase 2 (Homo sapiens); IC50 is the recorded read-out.

CO[C@@H]1[C@H](OC(=O)CCCCl)CC[C@]2(CO2)[C@@]1(O)[C@]1(C)OC1CC=C(C)C (some centres undefined) [FOS-69]
0.1 nM
CO[C@H]1C([C@]2(C)OC2CC=C(C)C)[C@]2(CC[C@H]1O)CO2 (some centres undefined) [FOS-37]
8 nM
CO[C@@H]1[C@H](O)CC[C@](O)(SC)[C@@]1(O)[C@]1(C)OC1CC=C(C)C (some centres undefined) [FOS-201]
45 nM

Would you kindly look at the next entry?
Return IC50 (reported value) for this compound: CO[C@@H]1[C@H](OC(=O)NC(=O)CCl)CC[C@]2(CO2)[C@@]1(O)[C@]1(C)OC1CC=C(C)C (some centres undefined) [FOS-68]
2 nM

---

These compounds were tested on Methionine aminopeptidase 2 (Homo sapiens, UniProt P50579); pIC50 is the recorded read-out.
Sequence (P50579 whole entry): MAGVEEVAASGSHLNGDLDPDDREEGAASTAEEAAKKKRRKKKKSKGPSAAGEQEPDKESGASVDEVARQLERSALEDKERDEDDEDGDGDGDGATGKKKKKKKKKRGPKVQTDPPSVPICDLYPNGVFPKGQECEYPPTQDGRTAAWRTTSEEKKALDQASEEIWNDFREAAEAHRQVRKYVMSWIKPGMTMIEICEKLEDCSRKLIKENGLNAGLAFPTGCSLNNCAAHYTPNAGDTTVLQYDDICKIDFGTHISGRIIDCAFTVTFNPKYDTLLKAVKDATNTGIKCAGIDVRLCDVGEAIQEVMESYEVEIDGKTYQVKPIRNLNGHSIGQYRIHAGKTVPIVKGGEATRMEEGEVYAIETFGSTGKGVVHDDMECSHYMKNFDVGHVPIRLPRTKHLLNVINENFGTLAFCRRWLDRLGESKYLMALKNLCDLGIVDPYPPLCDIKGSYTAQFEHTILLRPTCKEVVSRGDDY
Just the number, please; pIC50 means minus log10 of the concentration in mol/L.

Some solved entries appear below for comparison.
CO[C@@H]1[C@H](O)CC[C@]2(CO2)[C@@]1(O)[C@]1(C)OC1CC=C(C)C (some centres undefined) [FOS-34]
8.40
CO[C@H]1C([C@]2(C)OC2CC=C(C)C)[C@]2(CC[C@H]1OC(=O)NC(=O)CCl)CO2 (some centres undefined) [AGM-1470]
9.00
CO[C@@H]1C(=O)CC[C@]2(CO2)C1[C@]1(C)OC1CC=C(C)C (some centres undefined) [FOS-72]
8.22

Would you kindly look at the next entry?
Quote pIC50 with test system Methionine aminopeptidase 2 (Homo sapiens, UniProt P50579) for CO[C@H]1C([C@]2(C)OC2CC=C(C)C)[C@@](O)(SC)CC[C@H]1OC(=O)NC(=O)CCl (some centres undefined) [FOS-64]
5.52

Attribution: BindingDB's records for doi:10.1016/s1074-5521(97)90198-8
